# melting point per entry
value.kind: melting point

O=C1NCCn2c(-c3ccc(Cl)nc3)nc3cccc1c32 | > 280 °C (dec.)
CC(C)(C)c1nc2cccc3c2n1CCNC3=O | 246 to 248 °C
CN(C)CCc1ccc(-c2nc3cccc4c3n2CCNC4=O)cc1 | > 98 °C (dec.)
C[S+]([O-])c1nc2cccc3c2n1CCNC3=O (centres unmarked) | 241 to 242 °C (dec.)
CC(O)c1cn2c3c(cccc13)C(=O)NCC2 (centres unmarked) | 295 to 297 °C
O=C(c1ccccc1)c1cn2c3c(cccc13)C(=O)NCC2 | 229 to 230 °C
O=C1NCCn2c(-c3cccc(C(F)(F)F)c3)nc3cccc1c32 | 250 to 252 °C
NC(=S)c1c(-c2ccc(F)cc2)n2c3c(cccc13)C(=O)NCC2 | 238 to 240 °C
N#CCNCc1ccc(-c2nc3cccc4c3n2CCNC4=O)cc1 | 198 to 202 °C (dec.)
O=C1NCCn2c(-c3ccc[nH]3)nc3cccc1c32 | 327 to 332 °C (dec.)
CSc1nc2cccc3c2n1CCNC3=O | 223 to 225 °C
CCOCCNCc1ccc(-c2nc3cccc4c3n2CCNC4=O)cc1 | 138 to 140 °C
O=C1NCCn2c(-c3ccc(-c4c[nH]cn4)cc3)nc3cccc1c32 | > 198 °C (dec.)
O=C(c1ccccc1)c1cccc(-c2nc3cccc4c3n2CCNC4=O)c1 | 237 to 238 °C (dec.)
CN1CCN(C(=O)c2nc3cccc4c3n2CCNC4=O)CC1 | 311 to 316 °C (dec.)
O=C1NCCn2c(-c3ccc(F)cc3)c(-c3ccn[nH]3)c3cccc1c32 | 173 to 175 °C
CNCc1ccc(-c2nc3cccc4c3n2CCNC4=O)cc1 | 169 to 172 °C
COc1ccc(-c2cc3cccc4c3n2CCNC4=O)cc1 | 193 to 195 °C
O=C1NCCn2c(-c3cccc(C4OCCCO4)c3)nc3cccc1c32 | 247 °C (dec.)
Cc1ccc(-c2onc3ccc(-c4nc5cccc6c5n4CCNC6=O)cc23)cc1 | 297 to 301 °C (dec.)

* * *

In this section, each of the compounds is paired with its reported Cytotoxicity Potentiation PF50.
- Test system: A549 cells
- protocol.summary: Cytotoxicity potentiation assay
- Type: cell-based
- setup.conditions: test compound 0.4 μM, ratio of IC50 of topotecan alone to IC50 of topotecan with test compound
value.kind: Cytotoxicity Potentiation PF50

O=C1NCCn2c(-c3ccc(C4CCCCN4)cc3)nc3cccc1c32 (centres unmarked) | 3.4
O=C1NCCn2c(-c3cccc4ccccc34)nc3cccc1c32 | 1.4
O=C1NCCn2c(-c3ccc(Cl)cc3)nc3cccc1c32 | 1.8
CN(C)Cc1cccc(-c2nc3cccc4c3n2CCNC4=O)c1 | 1.8
O=C1NCCn2c(-c3ccc(F)c(F)c3)nc3cccc1c32 | 1.5
O=C1NCCn2c(-c3ccc(C4CCCN4)cc3)nc3cccc1c32 (centres unmarked) | 2.5
O=C1NCCn2c(-c3ccc(CNC4CC4)cc3)nc3cccc1c32 | 2.1
O=C1NCCn2c(-c3cccc(Oc4ccccc4)c3)nc3cccc1c32 | 2
CC(c1ccc(-c2nc3cccc4c3n2CCNC4=O)cc1)N1CCCC1 (centres unmarked) | 2.3
O=C1NCCn2c(-c3ccc(-n4ccnc4)cc3)nc3cccc1c32 | 2.2
CC1C=CC(C)N1Cc1ccc(-c2nc3cccc4c3n2CCNC4=O)cc1 (racemic) | 2.0
CC1CCCN1Cc1ccc(-c2nc3cccc4c3n2CCNC4=O)cc1 (centres unmarked) | 2.0
COCCNCc1ccc(-c2nc3cccc4c3n2CCNC4=O)cc1 | 1.7
O=C1NCCn2c(-c3ccccn3)nc3cccc1c32 | 1.3
O=C1NCCn2c(O)nc3cccc1c32 | 1.1
O=C1NCCn2c(-c3ccc(CCN4CCCC4)cc3)nc3cccc1c32 | 1.8
O=C1NCCn2c(-c3ccc4ccccc4c3)nc3cccc1c32 | 2.1
CNCc1cccc(-c2nc3cccc4c3n2CCNC4=O)c1 | 1.8
O=C1NCCn2c(-c3ccc(CN4CC=CC4)cc3)nc3cc(F)cc1c32 | 2.5
O=C1NCCn2c(-c3ccc(CN4CCOCC4)cc3)nc3cccc1c32 | 1.6
